- SYSTEM_TESTED: PAR4 (Homo sapiens, UniProt Q96RI0)
- Construct: expressed in transfected cells; host or cells: HEK293 PAR4 Clone 1.2A (BMS Arctic ID 383940)
- ASSAY_DETAILS: PAR4 FLIPR assay (antagonism of agonist peptide-induced calcium mobilization)
- Assay type: cell-based
pIC50: −log10 of the molar value.
ATTRIBUTE_MEASURED: pIC50

Completed entries (count: 5):
{"MOLECULE": "COc1cnc2c(-c3nc4cc(F)c5c(c4s3)C[C@H](CNC(=O)Cc3ccccc3)O5)cc(C)cc2n1", "pIC50": 6.92}
{"MOLECULE": "COc1cnc2c(-c3nc4cc(F)c5c(c4s3)C[C@@H](CNC(=O)OC3CCOCC3)O5)cc(C)cc2n1", "pIC50": 7.62}
{"MOLECULE": "COc1cnc2c(-c3nc4cc(F)c5c(c4s3)[C@@H](C)[C@H](CO)O5)cc(C)cc2n1 (single isomer, unassigned) [Example 201]", "pIC50": 8.11}
{"MOLECULE": "COc1cnc2c(-c3nc4ccc5c(c4s3)OC[C@H](COC(=O)Nc3ccc(C(=O)N4CCOCC4)cc3)O5)cc(C)cc2n1", "pIC50": 9.00}
{"MOLECULE": "COCCOC(=O)NC[C@@H]1Cc2c(c(F)cc3nc(-c4cc(C)cc5nc(OC)cnc45)sc23)O1", "pIC50": 8.64}

[1] COc1cnc2c(-c3nc4cc(F)c5c(c4s3)C[C@H](COC(=O)Nc3cnc(C)nc3)O5)cc(F)cc2c1
[2] COc1ccc(NC(=O)OC[C@@H]2COc3c(cc(Cl)c4nc(-c5cc(C)cc6nc(OC)cnc56)sc34)O2)cn1 (single isomer, unassigned)
Task for the reader: decide whether 1 or 2 has the larger pIC50. Select an item and report its label.
1

* * *

- SYSTEM_TESTED: PAR4 (Homo sapiens)
- Construct: expressed in transfected cells; host or cells: HEK293 PAR4 Clone 1.2A (BMS Arctic ID 383940)
- ASSAY_DETAILS: PAR4 FLIPR assay (antagonism of agonist peptide-induced calcium mobilization)
- Type: cell-based
- From the text: The FLIPR assay is an exemplary in vitro assay for measuring the activity of the PAR4 antagonists of the present invention. In this assay, intracellular calcium mobilization is induced in PAR4 expressing cells by a PAR4 agonist and calcium mobilization is monitored. HEK293 cells stably expressing PAR4 were generated by a standard method of transfection of human PAR4 (F2R23) cDNA expression vector and selected based on PAR4 protein expression or mRNA expression. […]
pIC50: −log10 of the molar value.
ATTRIBUTE_MEASURED: pIC50

Completed entries (count: 4):
{"COMPOUND": "COc1ccc(NC(=O)OC[C@H]2COc3c(cc(C)c4nc(-c5cc(C)cc6nc(OC)cnc56)sc34)O2)cn1 (single isomer, unassigned)", "SYSTEM_TESTED": "PAR4 (Homo sapiens)", "pIC50": 9.10}
{"COMPOUND": "COc1ccc(OC(=O)NC[C@@H]2Cc3c(c(F)cc4nc(-c5cc(C)cc6nc(OC)cnc56)sc34)O2)cc1", "SYSTEM_TESTED": "PAR4 (Homo sapiens)", "pIC50": 8.68}
{"COMPOUND": "COc1cnc2c(-c3nc4cc(F)c5c(c4s3)C[C@H](COC(=O)Nc3cc(F)cc(C#N)c3)O5)cc(C)cc2n1", "SYSTEM_TESTED": "PAR4 (Homo sapiens)", "pIC50": 8.62}
{"COMPOUND": "COc1cnc2c(-c3nc4c(Cl)cc5c(c4s3)OC[C@H](COC(=O)Nc3cccc(C#N)c3)O5)cc(C)cc2n1", "SYSTEM_TESTED": "PAR4 (Homo sapiens)", "pIC50": 8.66}

[1] COc1cnc2c(-c3nc4cc(F)c5c(c4s3)C[C@H](COC(=O)Nc3cccc(C(N)=O)c3)O5)cc(Cl)cc2c1
[2] COc1cnc2c(-c3nc4c(Cl)cc5c(c4s3)CC(COC(=O)Nc3ccc(C)nc3)O5)cc(CO)cc2n1 (stereo not shown)
[3] COc1cc(NC(=O)OC[C@H]2Cc3c(c(F)cc4nc(-c5cc(C)cc6nc(OC)cnc56)sc34)O2)ccn1
Ordering: ascending pIC50. Use the labels to give the ranking in the order requested.
3, 1, 2

* * *

- SYSTEM_TESTED: PAR4 (Homo sapiens, UniProt Q96RI0)
- Construct: expressed in transfected cells; host or cells: HEK293 PAR4 Clone 1.2A (BMS Arctic ID 383940)
- ASSAY_DETAILS: PAR4 FLIPR assay (antagonism of agonist peptide-induced calcium mobilization)
- Type: cell-based
pIC50: −log10 of the molar value.
ATTRIBUTE_MEASURED: pIC50

Completed entries (count: 8):
{"COMPOUND": "COc1cnc2c(-c3nc4cc(F)c5c(c4s3)C[C@@](C)(COC(=O)Nc3cnc(C)nc3)O5)cc(C)cc2n1", "pIC50": 7.52}
{"COMPOUND": "COc1cnc2c(-c3nc4c(C)cc5c(c4s3)OC[C@H](COC(=O)Nc3ccc4scnc4c3)O5)cc(C)cc2n1", "pIC50": 7.31}
{"COMPOUND": "COc1cnc2c(-c3nc4c(F)cc5c(c4s3)OC[C@H](COC(=O)Nc3ccncc3)O5)cc(C)cc2n1", "pIC50": 7.92}
{"COMPOUND": "COc1cnc2c(-c3nc4ccc5c(c4s3)C[C@](C)(COC(=O)Nc3cnc(C)nc3)O5)cc(C)cc2n1", "pIC50": 8.60}
{"COMPOUND": "COc1cnc2c(-c3nc4ccc5c(c4s3)C(C)C(CO)O5)cc(C)cc2n1 (centres unmarked)", "pIC50": 7.96}
{"COMPOUND": "COc1cnc2c(-c3nc4cc(F)c5c(c4s3)C[C@H](COC(=O)Nc3ccc(C(=O)N4CCOCC4)cc3)O5)cc(C)cc2n1", "pIC50": 8.18}
{"COMPOUND": "COc1cnc2c(-c3nc4cc(F)c5c(c4s3)C[C@@H](COC(=O)Nc3cnc(C)nc3)O5)cc(C)cc2n1", "pIC50": 8.41}
{"COMPOUND": "COc1cnc2c(-c3nc4c(Cl)cc5c(c4s3)OC[C@H](COC(=O)Nc3ccc(Cl)nc3)O5)cc(C)cc2n1", "pIC50": 8.74}

[1] COc1cnc2c(-c3nc4c(C)cc5c(c4s3)OCC(COC(=O)Nc3cnc(C)c(C)c3)O5)cc(C)cc2n1 (centres unmarked)
[2] COc1ccc(NC(=O)OC[C@H]2COc3c(cc(C(F)F)c4nc(-c5cc(C)cc6nc(OC)cnc56)sc34)O2)cn1
[3] COc1cnc2c(-c3cc4c5c(ccc4o3)O[C@@H](COC(=O)Nc3ccnc(C)c3)CO5)cc(C)cc2n1
[4] CCOc1cnc2c(-c3nc4cc(F)c5c(c4s3)[C@H](C)[C@@H](CO)O5)cc(C)cc2n1
Arrange the 4 compounds from largest to smallest pIC50. Use the labels to give the ranking in the order requested.
4, 1, 3, 2

* * *

- SYSTEM_TESTED: PAR4 (Homo sapiens)
- Construct: expressed in transfected cells; host or cells: HEK293 PAR4 Clone 1.2A (BMS Arctic ID 383940)
- Sequence (Q96RI0 18-385): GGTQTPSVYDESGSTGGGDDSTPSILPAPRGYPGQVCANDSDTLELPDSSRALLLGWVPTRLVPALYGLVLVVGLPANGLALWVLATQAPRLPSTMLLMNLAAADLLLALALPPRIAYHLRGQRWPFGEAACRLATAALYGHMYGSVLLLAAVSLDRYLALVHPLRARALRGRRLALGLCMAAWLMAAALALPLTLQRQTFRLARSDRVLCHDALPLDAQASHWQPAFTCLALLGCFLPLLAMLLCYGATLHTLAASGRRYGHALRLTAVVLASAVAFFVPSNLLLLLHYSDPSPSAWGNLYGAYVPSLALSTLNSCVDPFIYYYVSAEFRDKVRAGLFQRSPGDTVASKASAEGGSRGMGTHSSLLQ
- ASSAY_DETAILS: PAR4 FLIPR assay (antagonism of agonist peptide-induced calcium mobilization)
- Type: cell-based
pIC50: −log10 of the molar value.
ATTRIBUTE_MEASURED: pIC50

[1] COc1cnc2c(-c3nc4cc(F)c5c(c4s3)[C@H](C)[C@@H](CO)O5)cc(C)cc2n1 [Example 238]
[2] COc1cnc2c(-c3nc4c(F)cc5c(c4s3)OC[C@H](COC(=O)Nc3cccc(C#N)c3)O5)cc(C)cc2n1 [Example 72]
[3] COc1cnc2c(-c3nc4c(C)cc5c(c4s3)OCC(COC(=O)Nc3cncc(-c4ccccc4)c3)O5)cc(C)cc2n1 (stereo not shown) [Example 126]
[4] COc1cnc2c(-c3nc4ccc5c(c4s3)C[C@](C)(COC(=O)Nc3cccnc3)O5)cc(C)cc2n1 [Example 195]
Re-order the entries listed above so their pIC50 values fall from first to last. Use the labels to give the ranking in the order requested.
1, 4, 2, 3
